Reported IC50 values, Human JNK1α1 (Homo sapiens, UniProt P45983).
The answer is to be given in nM; state only the numeric part.

[in] Looking for the measured IC50 of CS(=O)(=O)CCCOc1cccc2c1ccn2-c1ccnc(N[C@H]2CC[C@H](C(=O)N3CCC(OP(=O)(O)O)CC3)CC2)n1 [Compound I-13] , can you help?
[out] 10.8

[in] State the recorded IC50 for this entry: C[C@H](N)C(=O)OC1CCN(C(=O)[C@H]2CC[C@H](Nc3nccc(-n4ccc5c(OCCCS(C)(=O)=O)cccc54)n3)CC2)CC1 [Compound I-1]
[out] 9.4

[in] Sample CC(C)[C@H](N)C(=O)OC1CCN(C(=O)[C@H]2CC[C@H](Nc3nccc(-n4ccc5c(OCCCS(C)(=O)=O)cccc54)n3)CC2)CC1 [Compound I-6] — what was its IC50?
[out] 10.5

[in] What value of IC50 has been reported for the following compound? CS(=O)(=O)CCCOc1cccc2c1ccn2-c1ccnc(N[C@H]2CC[C@H](C(=O)N3CCC(OC(=O)CCC(=O)O)CC3)CC2)n1 [Compound I-14]
[out] 27.9

[in] Requested read-out: IC50. Entry: CC[C@@H](C)[C@@H](N)C(=O)OC1CCN(C(=O)[C@H]2CC[C@H](Nc3nccc(-n4ccc5c(OCCCS(C)(=O)=O)cccc54)n3)CC2)CC1 [Compound I-11]
[out] 34.7

[in] Entry CN[C@@H](C)C(=O)OC1CCN(C(=O)[C@H]2CC[C@H](Nc3nccc(-n4ccc5c(OCCCS(C)(=O)=O)cccc54)n3)CC2)CC1 [Compound I-9] : reported IC50 = ?
[out] 15.3

[in] Entry under review: CC[C@H](C)[C@H](N)C(=O)OC1CCN(C(=O)[C@H]2CC[C@H](Nc3nccc(-n4ccc5c(OCCCS(C)(=O)=O)cccc54)n3)CC2)CC1 [Compound I-4] . Reported IC50?
[out] 11.6

====

- MEASURED TARGET: Human JNK2α2 (Homo sapiens)
- Sequence (P45984 whole entry): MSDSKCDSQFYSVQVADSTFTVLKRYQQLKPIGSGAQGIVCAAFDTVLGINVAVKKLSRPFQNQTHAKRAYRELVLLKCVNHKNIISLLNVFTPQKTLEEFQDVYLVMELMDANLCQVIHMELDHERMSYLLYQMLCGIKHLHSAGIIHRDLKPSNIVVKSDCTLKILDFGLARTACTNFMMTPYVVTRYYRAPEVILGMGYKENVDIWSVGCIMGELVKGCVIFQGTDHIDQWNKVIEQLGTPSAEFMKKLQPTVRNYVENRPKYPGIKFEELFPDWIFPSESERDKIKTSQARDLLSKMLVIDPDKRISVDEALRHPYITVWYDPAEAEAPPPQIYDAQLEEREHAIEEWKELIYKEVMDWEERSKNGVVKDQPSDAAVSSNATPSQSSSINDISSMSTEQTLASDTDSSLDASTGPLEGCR
MEASURED ENDPOINT: IC50 (nM)
# value in nM; strip the unit string

[in] Item CS(=O)(=O)CCCOc1cccc2c1ccn2-c1ccnc(N[C@H]2CC[C@H](C(=O)N3CCC(OP(=O)(O)O)CC3)CC2)n1 has what recorded IC50?
[out] 56.8

[in] What value of IC50 has been recorded for this entry: CN[C@@H](C)C(=O)OC1CCN(C(=O)[C@H]2CC[C@H](Nc3nccc(-n4ccc5c(OCCCS(C)(=O)=O)cccc54)n3)CC2)CC1
[out] 50.9

[in] If you can, please state the reported IC50 value of CS(=O)(=O)CCCOc1cccc2c1ccn2-c1ccnc(N[C@H]2CC[C@H](C(=O)N3CCC(OC(=O)[C@@H]4CCCN4)CC3)CC2)n1 .
[out] 27.4

[in] I am curious: what IC50 value has been reported for CC(C)[C@H](N)C(=O)OC1CCN(C(=O)[C@H]2CC[C@H](Nc3nccc(-n4ccc5c(OCCCS(C)(=O)=O)cccc54)n3)CC2)CC1 ?
[out] 40.2

[in] State the recorded IC50 for this entry: CC(C)(N)C(=O)OC1CCN(C(=O)[C@H]2CC[C@H](Nc3nccc(-n4ccc5c(OCCCS(C)(=O)=O)cccc54)n3)CC2)CC1
[out] 34.7

[in] IC50 for C[C@H](N)C(=O)OC1CCN(C(=O)[C@H]2CC[C@H](Nc3nccc(-n4ccc5c(OCCCS(C)(=O)=O)cccc54)n3)CC2)CC1 ?
[out] 40.8

[in] Bench note: what IC50 did CN[C@H](C(=O)OC1CCN(C(=O)[C@H]2CC[C@H](Nc3nccc(-n4ccc5c(OCCCS(C)(=O)=O)cccc54)n3)CC2)CC1)C(C)C (stereo in doubt) show?
[out] 40.5

[in] Sample CC[C@H](C)[C@H](N)C(=O)OC1CCN(C(=O)[C@H]2CC[C@H](Nc3nccc(-n4ccc5c(OCCCS(C)(=O)=O)cccc54)n3)CC2)CC1 — what was its IC50?
[out] 51.9
